test system: IL-6; experiment: Atopic dermatitis efficacy test using macrophages (RAW 264.7): IL-6 released after LPS, ELISA; type: cell-based, mouse; set-up: key: •: have statistical significance, determining as effective, compared with the positive control; details: Table 3; 1 μg/mL for 24 hours, then LPS 0.1 μg/mL 24 hours; vs stimulator only
Measure name: RAW 264.7 (mouse) IL-6

Substance: Z8: ZAG protein-derived peptide, SEQ ID NO. 8: YPGKIDVHWTRAGEVQEPELRGDVLHNGNG (ZAG protein-derived peptide)
Assay system: IL-6
RAW 264.7 (mouse) IL-6: •
--
Substance: Z10: ZAG protein-derived peptide, SEQ ID NO. 10: GLSKHVEDVPAFQALGSLNDLQFFRYNSKD (ZAG protein-derived peptide)
Assay system: IL-6
RAW 264.7 (mouse) IL-6: •
--
Substance: Z7: ZAG protein-derived peptide, SEQ ID NO. 7: LDRQDPPSVVVTSHQAPGEKKKLKCLAYDF (ZAG protein-derived peptide)
Assay system: IL-6
RAW 264.7 (mouse) IL-6: •
--
Substance: Z3: ZAG protein-derived peptide, SEQ ID NO. 3: EDWKQDSQLQKAREDIFMETLKDIVEYYND (ZAG protein-derived peptide)
Assay system: IL-6
RAW 264.7 (mouse) IL-6: •

# ---- query substance ----
Entry Z14: ZAG protein-derived peptide, SEQ ID NO. 14: IFMETLKDIVEYYNDSNGSHVLQGRFGCEI (ZAG protein-derived peptide) — recorded RAW 264.7 (mouse) IL-6 = •
